Listing of recorded IC50 by entry.
System: PC-3
PROTOCOL: Antiproliferative activity against human PC-3 cells assessed as inhibition of cell growth
Format: functional, cell-based
Your answer is read as µM, so omit the unit and give the number.

>  <SMILES>
O=c1[nH]c2ccccc2c2nnc(C(F)(F)F)n12

>  <UNIT TEXT>
µM

>  <IC50>
5.93

$$$$

Turning now to a further compound:
[Q] Give reported IC50 value for "O=c1[nH]c2ccccc2c2nnc(-c3ccc(Cl)cc3)n12"
[A] 5.93

* * *

Each entry below lists one item and its recorded pIC50 value.
System: HCT-116
PROTOCOL: Antiproliferative activity against human HCT-116 cells assessed as inhibition of cell growth
Type: functional, cell-based
Kindly note that pIC50 refers to -log10 of the concentration in mol/L and answer with the value alone.

>  <SMILES>
O=c1[nH]c2ccccc2c2nnc(C(F)(F)F)n12

>  <pIC50>
5.23

$$$$

Kindly review the next compound as well.
[Q] Return reported pIC50. Input compound: "O=c1[nH]c2ccccc2c2nnc(-c3ccc(Cl)cc3)n12"
[A] 5.23
